Cited source for all entries: paper PMC2756588

- assayed-target: T1, Nbp2, Q12163
- T1 sequence (Q12163 103-180, looked up): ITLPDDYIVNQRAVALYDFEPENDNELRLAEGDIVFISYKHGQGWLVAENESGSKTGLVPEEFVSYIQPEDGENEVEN
- procedure-text: SPOT array
- run-parameters: median of control spots 357
Hi there, I'd appreciate the recorded SPOT intensity for every entry that follows.
Answers are plain numbers.

# example entries with known answers
{"binder": "SSSSSPPPLPTRRDH", "SPOT intensity": 0}
{"binder": "VRTRRRPPPPPIPST", "SPOT intensity": 35}
{"binder": "SKSRLLIELPEGFFT", "SPOT intensity": 0}
{"binder": "LKRITSPPLPPRADS", "SPOT intensity": 0}
{"binder": "DDEDVPPQLPTRTKS", "SPOT intensity": 0}
{"binder": "NILKRRPLKLEAPSK", "SPOT intensity": 0}
{"binder": "NPTKSPPPPPSPSTM", "SPOT intensity": 0}
{"binder": "EAEEAAPQLPSRSSA", "SPOT intensity": 0}
{"binder": "IKTRSVPKIPSIESV", "SPOT intensity": 12}
{"binder": "RMVRRRPLRVQFSAR", "SPOT intensity": 104}

Record SPOT intensity for all entries; do not skip any.
1. IFLRISINFPLNYPN
2. KTRLRPAFIQQLWSS
3. ITHRLRISIPGITGR
4. ALFRLSFFFPLDPAY
5. IVNKPLPPLPVAGSS

74
4
32
283
0
